assay.system: IKZF1 (Homo sapiens, UniProt Q13422+Q96SW2)
Construct: endogenously expressing IKZF1 with HiBiT fusion tag via CRISPR; endogenous in cells; host or cells: NCIH929.11 (CRISPR knock-in)
Sequence (Q13422 whole entry, the tested form may be a part): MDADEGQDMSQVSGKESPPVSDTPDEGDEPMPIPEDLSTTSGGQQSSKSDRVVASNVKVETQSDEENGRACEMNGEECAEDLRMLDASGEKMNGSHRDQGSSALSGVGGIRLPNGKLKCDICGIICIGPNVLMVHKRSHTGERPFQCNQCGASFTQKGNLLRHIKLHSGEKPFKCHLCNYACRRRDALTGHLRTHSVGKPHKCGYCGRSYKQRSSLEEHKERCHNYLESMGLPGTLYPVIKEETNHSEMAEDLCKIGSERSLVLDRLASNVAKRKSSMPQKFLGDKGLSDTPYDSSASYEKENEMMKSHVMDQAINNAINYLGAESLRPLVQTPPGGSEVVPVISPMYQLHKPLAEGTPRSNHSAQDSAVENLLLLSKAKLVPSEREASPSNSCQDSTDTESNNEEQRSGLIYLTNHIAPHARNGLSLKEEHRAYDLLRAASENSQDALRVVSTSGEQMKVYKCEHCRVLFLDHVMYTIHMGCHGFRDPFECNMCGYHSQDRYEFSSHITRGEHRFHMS
Sequence (Q96SW2 whole entry, the tested form may be a part): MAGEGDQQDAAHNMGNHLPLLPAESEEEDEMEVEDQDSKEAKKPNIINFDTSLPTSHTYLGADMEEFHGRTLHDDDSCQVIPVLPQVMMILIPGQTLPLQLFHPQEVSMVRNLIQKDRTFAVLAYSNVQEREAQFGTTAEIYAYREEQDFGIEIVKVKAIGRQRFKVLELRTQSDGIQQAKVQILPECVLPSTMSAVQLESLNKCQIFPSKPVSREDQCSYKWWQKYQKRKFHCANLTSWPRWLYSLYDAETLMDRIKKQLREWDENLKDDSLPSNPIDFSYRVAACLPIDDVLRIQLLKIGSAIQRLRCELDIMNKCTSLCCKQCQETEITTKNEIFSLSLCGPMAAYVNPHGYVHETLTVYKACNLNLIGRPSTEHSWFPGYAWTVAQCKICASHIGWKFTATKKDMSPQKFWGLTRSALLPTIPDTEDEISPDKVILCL
Sequence (Q16531 2-1140 partner limits assumed): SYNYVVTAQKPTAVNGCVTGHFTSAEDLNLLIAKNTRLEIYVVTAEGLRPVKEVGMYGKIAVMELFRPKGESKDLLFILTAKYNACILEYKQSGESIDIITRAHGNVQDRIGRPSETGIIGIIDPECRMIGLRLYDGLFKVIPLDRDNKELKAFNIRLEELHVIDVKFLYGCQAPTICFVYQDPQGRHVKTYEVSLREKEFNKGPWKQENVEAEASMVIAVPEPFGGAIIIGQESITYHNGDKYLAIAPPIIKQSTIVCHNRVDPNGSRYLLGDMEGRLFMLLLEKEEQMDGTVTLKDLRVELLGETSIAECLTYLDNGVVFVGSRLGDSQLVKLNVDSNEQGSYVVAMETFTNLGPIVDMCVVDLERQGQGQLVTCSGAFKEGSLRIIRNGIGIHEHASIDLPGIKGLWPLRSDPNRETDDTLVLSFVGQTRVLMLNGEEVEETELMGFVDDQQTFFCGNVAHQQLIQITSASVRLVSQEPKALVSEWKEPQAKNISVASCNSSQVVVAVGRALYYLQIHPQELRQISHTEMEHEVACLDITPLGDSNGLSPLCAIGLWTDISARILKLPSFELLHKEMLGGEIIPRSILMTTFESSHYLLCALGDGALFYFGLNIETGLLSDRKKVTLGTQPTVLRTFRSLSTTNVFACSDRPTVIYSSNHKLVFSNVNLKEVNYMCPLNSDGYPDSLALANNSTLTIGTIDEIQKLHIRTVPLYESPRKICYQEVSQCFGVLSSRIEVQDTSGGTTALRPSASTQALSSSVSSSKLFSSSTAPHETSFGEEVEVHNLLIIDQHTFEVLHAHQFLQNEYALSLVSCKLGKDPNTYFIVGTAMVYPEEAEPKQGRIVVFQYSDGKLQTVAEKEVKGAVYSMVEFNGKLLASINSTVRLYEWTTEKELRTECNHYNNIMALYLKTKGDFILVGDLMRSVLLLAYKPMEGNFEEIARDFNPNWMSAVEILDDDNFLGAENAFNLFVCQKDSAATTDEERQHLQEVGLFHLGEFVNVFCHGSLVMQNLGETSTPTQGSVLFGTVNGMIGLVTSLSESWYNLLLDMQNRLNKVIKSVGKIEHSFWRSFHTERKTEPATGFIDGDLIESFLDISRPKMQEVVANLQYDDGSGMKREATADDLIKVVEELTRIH
assay.explanation: HiBiT degradation assay, NCIH929.11 (HiBiT-IKZF1) cells
Type: cell-based
particulars: read-out: HiBiT-Degradation NCHI929.11 IKZF1 6 hours Emax, NCHI929.11 cells
Method: RPMI no-phenol red medium and fetal bovine serum (FBS) were purchased from Gibco (Grand Island, NY, USA). Nano-Glo® HiBiT Lytic Assay System was purchased from Promega (Madison, WI, USA). […] IKZF 1 degradation was determined based on quantification of luminescent signal using Nano-Glo® HiBiT Lytic Assay kit. […] Luminescence was acquired on EnVision™ Multilabel Reader (PerkinElmer, Santa Clara, CA, USA).
experimental.endpoint: Emax

These recorded examples may help you get a feel for the data.
1. CCOC(=O)c1cccc(Cc2ccc3c4c(cccc24)N(C2CCC(=O)NC2=O)C3=O)c1 (stereo not drawn) [Compound 62] : 60 to 95%
2. CC1(C(=O)N2CCC(n3cc(Cc4ccc5c6c(cccc46)C(=O)N5[C@H]4CCC(=O)NC4=O)cn3)CC2)CCC1 [Compound 206] : < 45%
3. CC(C)(C)OC(=O)N1CCC(n2cc(Cc3ccc4c5c(cccc35)C(=O)N4[C@H]3CCC(=O)NC3=O)cn2)CC1 [Compound 197] : < 45%
4. O=C1CCC(N2C(=O)c3ccc(CNC(=O)C(F)(F)c4ccc(Cl)cc4)c4cccc2c34)C(=O)N1 (stereo not drawn) [Compound 64] : 45 to 60%
5. O=C1CCC(N2C(=O)c3ccc(N4CCc5ccccc54)c4cccc2c34)C(=O)N1 (stereo not drawn) [Compound 209] : 60 to 95%

Here is the next item to consider.
The molecule O=C1CCC(N2C(=O)c3ccc(CNCCc4ccc(Cl)cc4)c4cccc2c34)C(=O)N1 (stereo not drawn) [Compound 157] on IKZF1 (Homo sapiens, UniProt Q13422+Q96SW2): Emax was < 45%

====

assay.system: SALL4 (Homo sapiens, UniProt Q96SW2+Q9UJQ4)
Sequence (Q9UJQ4 whole entry): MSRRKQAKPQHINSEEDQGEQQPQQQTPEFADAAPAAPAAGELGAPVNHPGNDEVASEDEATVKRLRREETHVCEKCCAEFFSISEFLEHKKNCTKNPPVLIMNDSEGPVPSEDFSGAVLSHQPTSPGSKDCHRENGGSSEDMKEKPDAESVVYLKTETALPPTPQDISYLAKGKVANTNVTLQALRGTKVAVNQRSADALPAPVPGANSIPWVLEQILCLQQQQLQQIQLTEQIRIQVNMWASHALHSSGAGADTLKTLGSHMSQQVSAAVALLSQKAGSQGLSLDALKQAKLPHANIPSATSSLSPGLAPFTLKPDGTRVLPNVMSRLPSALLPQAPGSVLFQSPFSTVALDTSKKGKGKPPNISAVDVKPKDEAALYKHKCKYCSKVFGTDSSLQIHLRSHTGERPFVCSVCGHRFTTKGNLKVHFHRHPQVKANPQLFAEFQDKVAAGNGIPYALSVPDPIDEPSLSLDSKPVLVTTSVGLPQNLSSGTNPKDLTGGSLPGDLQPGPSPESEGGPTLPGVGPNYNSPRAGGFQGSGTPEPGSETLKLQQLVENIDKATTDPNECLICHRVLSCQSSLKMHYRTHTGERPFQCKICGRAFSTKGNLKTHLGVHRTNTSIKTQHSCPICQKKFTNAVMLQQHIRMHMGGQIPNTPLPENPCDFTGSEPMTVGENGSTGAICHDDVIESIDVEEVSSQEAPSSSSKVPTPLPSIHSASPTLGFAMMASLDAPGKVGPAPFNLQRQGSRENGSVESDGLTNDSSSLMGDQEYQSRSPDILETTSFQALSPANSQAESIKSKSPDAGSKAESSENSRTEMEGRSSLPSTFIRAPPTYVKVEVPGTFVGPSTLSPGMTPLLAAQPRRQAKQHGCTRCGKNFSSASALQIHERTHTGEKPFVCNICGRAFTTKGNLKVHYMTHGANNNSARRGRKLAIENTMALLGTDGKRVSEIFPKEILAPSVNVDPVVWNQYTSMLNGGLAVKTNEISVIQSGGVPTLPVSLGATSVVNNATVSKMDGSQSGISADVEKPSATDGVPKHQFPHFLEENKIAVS
Sequence (Q96SW2 whole entry): as the sequence (Q96SW2 whole entry, the tested form may be a part) above
Sequence (Q16531 2-1140 partner limits assumed): as the sequence (Q16531 2-1140 partner limits assumed) above
assay.explanation: HiBiT degradation assay, KELLY.2 (SALL4-HiBiT) cells
Type: cell-based
particulars: read-out: HiBiT-Degradation KELLY.2 SALL4 6 hours Emax, KELLY.2 cells
Below: a set of entries, each annotated with reported Emax.

These recorded examples may help you get a feel for the data.
1. CC1(n2cc(Cc3ccc4c5c(cccc35)C(=O)N4C3CCC(=O)NC3=O)cn2)CCN(C(=O)C2(C#N)CCCCC2)CC1 (stereo not shown) : < 45%
2. CC(C)(C)OC(=O)N1CCC(n2cc(Cc3ccc4c5c(cccc35)C(=O)N4[C@H]3CCC(=O)NC3=O)cn2)CC1 : < 45%
3. O=C1CCC(N2C(=O)c3ccc(C4(F)CCN(Cc5ccccc5)CC4)c4nccc2c34)C(=O)N1 (stereo not shown) : < 45%
4. Cc1ccc(CN2CCC(c3ccc4c5c(cccc35)N(C3CCC(=O)NC3=O)C4=O)CC2)cc1F (stereo not shown) : 60 to 95%
5. COC(=O)c1ccc(Nc2ccc3cccc4c3c2C(=O)N4C2CCC(=O)NC2=O)cc1 (stereo not shown) : 60 to 95%

Value of Emax reported for the compound O=C1CCC(N2C(=O)c3ccc(CNC(=O)C(F)(F)c4ccc(Cl)cc4)c4cccc2c34)C(=O)N1 (stereo not shown) is < 45%

Value of Emax reported for the compound CC1(n2cc(Cc3ccc4c5c(cccc35)C(=O)N4C3CCC(=O)NC3=O)cn2)CCN(C(=O)C2CC2)CC1 (stereo not shown) is < 45%
